Biological target: T1, mature recombinant human GDF-15 with an N-terminal Flag and His tag, biotinylated (human, UniProt Q99988 197-308, chemically biotinylated with EZ link Sulfo-NHS-LC-Biotin, sites not stated)
T1 construct: not shown: N-terminal Flag and His tags
T1 sequence: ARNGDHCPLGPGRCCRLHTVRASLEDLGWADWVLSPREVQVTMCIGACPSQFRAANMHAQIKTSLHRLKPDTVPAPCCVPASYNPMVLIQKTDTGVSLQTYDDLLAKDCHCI
Test: SPR Biacore 8K, 25 C, biotinylated GDF-15 on streptavidin C1 chip, Fab as analyte
Readings of koff for the listed binders
value kind: koff

>>> assay_result("AB1170242 Fab (Fab, V domains shown, Fab of the humanized antibody, expressed as in Spooner et al. 2015) VH: QVQLQESGPGLLKPSQTLSLTCTVSGFSLSTYGMGVGWIRQPAGKGLEWLANIWWNDDKYYNSALKSRLTISKDTSKNQVSLKLSSVTAADTAVYYCAQEVYGWFAYWGQGTLVTVSS VL: DIQMTQSPSTLSASVGDRVTITCKASQNVGTNVAWYQQKPGQPPKALIYSASYRYSGVPDRFSGSGSGTDFTLTISSLQAEDVAVYYCQQYNSYPLTFGQGTKLEIK")
"0.0247 s⁻¹"
>>> assay_result("AB1170241 Fab (Fab, V domains shown, Fab of the humanized antibody, expressed as in Spooner et al. 2015) VH: QVQLVQSGSELKKPGASVKVSCKASGYTFTDYNMDWIRQSPGKGLEWIGDINPNQGGTFYNQKFKDRATLTVDKSTSTAYMELRSLRSDDTAVYYCAREEKLYFGLMDYWGQGTTVTVSS VL: DIQMTQSPSSLSASVGDRVTITCRASENIYSYLAWYQQKPGKAPKLLVYNAKTLAEGVPSRFSGSGSGIDFTLTISSLQPEDFATYYCQHQYGSPPTFGQGTKLEIK")
"0.000663 s⁻¹"
>>> assay_result("AB1170244 Fab (Fab, V domains shown, Fab of the humanized antibody, expressed as in Spooner et al. 2015) VH: EVQLVESGGGLVKPGGSLRLSCAASGFTFSSYAMSWVRQAPGKGLEWVAYISSGGDNIYYADTVKGRFTISRDNSKNTLYLQMNSLKTEDTAVYYCTRALVENAYFDYWGQGTTVTVSS VL: DSVLTQSPDSLAVSLGERATINCRASKSVSTSTYSYMHWYQQKPGQPPKLLIKYASYLESGVPDRFSGSGSGTDFTLKISRVEAEDVGVYYCQHSREFPWTFGGGTKVEIK")
"0.00558 s⁻¹"
>>> assay_result("AB1520085 Fab (Fab, V domains shown, Fab of the anti-mouse GDF-15 mouse IgG1, expressed as in Spooner et al. 2015) VH: QVQLQQPGAELVMPGASVKMSCKASGYTFTDYWMHWVKQRPGQGLEWIGVIDTSESYTSYNQKFKGKATLTVDESSSTAYMQLSSLTSEDSAVYFCARGGTTVVLDYWGQGTTLTVSS VL: DIVMTQSQKFMSTSVGDRVSVTCKASQNVGTAVAWYQKKPGQSPKALIYSASTRYTGVPDRFTGSGSGTDFTLTISNVQSEDLAEYFCQQYSSSPWTFGGGTKLELK")
"0.00489 s⁻¹"
>>> assay_result("AB1170247 Fab (Fab, V domains shown, Fab of the humanized antibody, expressed as in Spooner et al. 2015) VH: QVQLVQSGSELKKPGASVKVSCKASGYTFTSYDINWVRQAPGQGLEWIGWIYPRDGISKYNEKFKGRATLTVDTSASTAYMELSSLRSEDTAVYYCAGTYDPAYFDYWGQGTTVTVSS VL: EIVLTQSPATLSVSPGERATLSCRASQSISYYLHWYQQKPGQAPRLLIKYASQSISGVPDRFSGSGSGTDFTLKISRVEAEDFGVYYCQQSNSWPYTFGGGTKVEIK")
"0.0386 s⁻¹"
